Recorded IC50 by entry
Target: recombinant human Adenosine A1 (FAST-001C) receptor (Homo sapiens, UniProt P30542)
Assay: cAMP HTRF assay, Adenosine A1 receptor, antagonist mode
measured.metric: IC50 (nM)

molecule	experimental.system	measured.metric	measurement
C=C1Nc2ccccc2-c2nc(-c3ccco3)nn21	recombinant human Adenosine A1 (FAST-001C) receptor (Homo sapiens, UniProt P30542)	IC50	493
Clc1ccc2ncn3nc(-c4ccco4)nc3c2c1 [BRO-022]	recombinant human Adenosine A1 (FAST-001C) receptor (Homo sapiens, UniProt P30542)	IC50	170
Cc1ccc(-c2nc3c4cc(Cl)ccc4nc(N)n3n2)o1 [BRO-013]	recombinant human Adenosine A1 (FAST-001C) receptor (Homo sapiens, UniProt P30542)	IC50	7.94
CN(C)c1nc2ccc(Cl)cc2c2nc(-c3ccco3)nn12 [BRO-020]	recombinant human Adenosine A1 (FAST-001C) receptor (Homo sapiens, UniProt P30542)	IC50	72.4

----------
Target: recombinant human Adenosine A2A (FAST-002C) receptor (Homo sapiens)
Sequence (P29274 whole entry): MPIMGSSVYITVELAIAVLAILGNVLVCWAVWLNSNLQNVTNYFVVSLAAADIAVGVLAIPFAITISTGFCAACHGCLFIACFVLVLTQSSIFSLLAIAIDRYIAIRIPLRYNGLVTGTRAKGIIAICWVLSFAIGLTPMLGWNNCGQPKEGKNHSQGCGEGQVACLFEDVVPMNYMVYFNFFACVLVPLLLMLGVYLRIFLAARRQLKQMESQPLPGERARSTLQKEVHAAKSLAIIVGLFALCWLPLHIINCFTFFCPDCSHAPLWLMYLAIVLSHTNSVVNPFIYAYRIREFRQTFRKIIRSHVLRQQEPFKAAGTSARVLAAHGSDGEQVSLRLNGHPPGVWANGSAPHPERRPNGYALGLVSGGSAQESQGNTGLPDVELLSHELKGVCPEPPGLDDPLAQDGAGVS
Assay: cAMP HTRF assay, Adenosine A2A receptor, antagonist mode
Assay type: cell-based
Conditions: antagonist mode; HEK293; reference agonist NECA
Recorded IC50 by entry

compound	IC50
Cc1ccc(-c2nc3c4cc(Cl)ccc4nc(N)n3n2)o1 [BRO-013]	0.0272 µM
C=C1Nc2ccccc2-c2nc(-c3ccco3)nn21	1.33 µM

----------
Target: recombinant human Adenosine A2B (FAST-003C) receptor (Homo sapiens)
Sequence (P29275 whole entry): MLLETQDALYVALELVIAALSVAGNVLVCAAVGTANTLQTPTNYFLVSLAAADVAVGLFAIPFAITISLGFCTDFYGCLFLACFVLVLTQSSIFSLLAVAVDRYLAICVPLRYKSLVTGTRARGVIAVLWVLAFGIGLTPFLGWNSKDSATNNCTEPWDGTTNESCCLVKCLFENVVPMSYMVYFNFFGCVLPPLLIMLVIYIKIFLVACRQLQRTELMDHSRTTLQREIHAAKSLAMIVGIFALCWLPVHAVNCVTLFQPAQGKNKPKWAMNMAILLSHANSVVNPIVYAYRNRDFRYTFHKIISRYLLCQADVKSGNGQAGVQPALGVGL
Experiment: cAMP HTRF assay, Adenosine A2B receptor, antagonist mode
Details: antagonist mode dose-response fit
Recorded Hill Coefficient by entry

molecule	Hill Coefficient
C=C1Nc2ccccc2-c2nc(-c3ccco3)nn21	1.80
Clc1ccc2ncn3nc(-c4ccco4)nc3c2c1	1.39
Cc1ccc(-c2nc3c4cc(Cl)ccc4nc(N)n3n2)o1	1.76
Nc1nc2ccc(Cl)cc2c2nc(-c3ccco3)nn12 [CGS-15943, reference compound]	1.75

----------
Biological target: recombinant human Adenosine A1 (FAST-001C) receptor (Homo sapiens)
Sequence (P30542 1-326): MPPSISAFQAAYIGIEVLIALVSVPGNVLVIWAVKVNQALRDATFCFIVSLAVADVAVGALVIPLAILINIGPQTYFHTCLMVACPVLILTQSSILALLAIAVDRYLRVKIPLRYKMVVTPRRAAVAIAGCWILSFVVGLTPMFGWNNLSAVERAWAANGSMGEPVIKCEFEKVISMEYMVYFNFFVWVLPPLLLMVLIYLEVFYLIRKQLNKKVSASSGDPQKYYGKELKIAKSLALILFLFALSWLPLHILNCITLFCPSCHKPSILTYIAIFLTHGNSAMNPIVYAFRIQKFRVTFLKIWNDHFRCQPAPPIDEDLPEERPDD
Assay: cAMP HTRF assay, Adenosine A1 receptor, antagonist mode
Conditions: antagonist mode dose-response fit
Criterion: Hill Coefficient strictly less than 0.9. Met: rule met. Not met: rule not met.

chem.smiles	experimental.system	category
Cc1ccc(-c2nc3c4cc(Cl)ccc4nc(N)n3n2)o1	recombinant human Adenosine A1 (FAST-001C) receptor (Homo sapiens)	rule not met
Clc1ccc2ncn3nc(-c4ccco4)nc3c2c1	recombinant human Adenosine A1 (FAST-001C) receptor (Homo sapiens)	rule not met
C=C1Nc2ccccc2-c2nc(-c3ccco3)nn21	recombinant human Adenosine A1 (FAST-001C) receptor (Homo sapiens)	rule not met
CN(C)c1nc2ccc(Cl)cc2c2nc(-c3ccco3)nn12	recombinant human Adenosine A1 (FAST-001C) receptor (Homo sapiens)	rule met
